B1: PRKX (parent)
chain: KLLVVDRTRRLGNMKNGANDVKHH

variants of: B1; experiment: protein stability index of a GFP-peptide fusion (GPS, HEK-293T) (PSI 1-6); higher = more stable; details: c terminus: a fixed tail appended;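 further: lentivirally expressed fusions sorted by FACS into six bins by GFP to DsRed ratio, PSI derived from sequencing read proportions per bin multiplied by bin number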
Each entry below lists one item and its recorded protein stability index value.
Lab note: jot down the number only; don't add units.

Examples with answers:
- KLLVVPRTRRLGNMKNGANDVKHH [D6P]: 2.94
- KLLVVDRTKRLGNMKNGANDVKHH [R9K]: 2.99
- KLLVVDRTRRLGNMKNVANDVKHH [G17V]: 3.04
- KLLVVDRTRRLGNPKNGANDVKHH [M14P]: 2.98
- KLLVVERTRRLGNMKNGANDVKHH [D6E]: 2.94

For KLLVVDRTRALGNMKNGANDVKHH [R10A] the variant record lists protein stability index as 3.06
